Where do the numbers come from? From the supplement of paper PMC13207355.

What phenotypic distance was measured for each of the following?
- Test system: E13 (patient-derived glioblastoma stem cells of classical subtype)
- protocol-description: phenotypic distance (Euclidean, principal components) from DMSO controls (arbitrary units); higher = stronger morphological change;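 also: cell Painting imaging in 384-well plates, CellProfiler features reduced to at least 20 principal components, Euclidean distance versus same-plate DMSO vehicle wells (0.1% v/v), median over six images per well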
- experimental-parameters: 333.3 nM; exposure time: 72 h
Structures can show the parent of a compound that is named as a salt.
Lab note: record the figure alone, no unit after it.

query: Consider the compound Nc1ccn([C@@H]2O[C@H](CO)[C@@H](O)[C@@H]2O)c(=O)n1 [Cytarabine] and give its measured phenotypic distance.
result: 4.49

query: Tell me the measured phenotypic distance of "CCN(CC)Cc1ccc(C(=O)N(CCc2ccccc2OC)[C@@H]2CCNC2)cc1" , please.
result: 0.975

query: May I ask what phenotypic distance has been recorded for CC(C)NCC(O)c1ccc(O)c(O)c1 (centres undefined) [Isoproterenol hydrochloride] ?
result: 0.863

query: Quick one: phenotypic distance of Clc1ccc(CSC(Cn2ccnc2)c2ccc(Cl)cc2Cl)cc1 (centres undefined) [Sulconazole nitrate] ?
result: 1.02

query: Quick one: phenotypic distance of Nc1ccn([C@@H]2O[C@H](CO)[C@@H](O)C2(F)F)c(=O)n1 [Gemcitabine HCl] ?
result: 6.22

query: What does the data say about its phenotypic distance? Entry: Nc1nc(Cl)nc2c1ncn2[C@@H]1O[C@H](CO)[C@@H](O)[C@@H]1F [Clofarabine]
result: 0.616

query: Field request: phenotypic distance | item: COc1cc(/C=C/C(=O)N2CCC=CC2=O)cc(OC)c1OC [Piperlongumine]
result: 0.883

query: Could you share which phenotypic distance value was measured for CC(C)NCC(O)COc1cccc2ccccc12 (centres undefined) [Propranolol hydrochloride] ?
result: 0.522

query: Requested field: phenotypic distance. Item: C#C[C@]1(O)CC[C@H]2[C@@H]3CCc4cc(OC5CCCC5)ccc4[C@H]3CC[C@@]21C [Quinestrol]
result: 0.689

---

Answer each item with its documented phenotypic distance.
- Test system: E57 (patient-derived glioblastoma stem cells of mesenchymal subtype)
- protocol-description: phenotypic distance (Euclidean, principal components) from DMSO controls (arbitrary units); higher = stronger morphological change
- experimental-parameters: 12.3 nM; exposure time: 72 h
Structures can show the parent of a compound that is named as a salt.

query: Would you kindly share the measured phenotypic distance for "COc1ccc2c(c1)CC[C@@H]1[C@@H]2CC[C@]2(C)[C@@H](NCCCCCCN3C(=O)CCC3=O)CC[C@@H]12" ?
result: 0.302

query: I'd like to know its phenotypic distance. The molecule in question is "CC[N+](CC)(CC)CCOc1ccc(/C=C/c2ccccc2)cc1"
result: 0.906

query: Recorded phenotypic distance for "CC(C)C[C@H](NC(=O)CNC(=O)c1cc(Cl)ccc1Cl)B(O)O" , please?
result: 11.9

query: Query (molecule): CC[C@@]1(O)C(=O)OCc2c1cc1n(c2=O)Cc2cc3cc(O)ccc3nc2-1 [Hydroxy Camptothecine] ; field requested: phenotypic distance
result: 6.72

query: Can you look up the measured phenotypic distance of "COC(=O)Nc1nc2cc(C(=O)c3ccc(F)cc3)ccc2[nH]1" for me?
result: 0.423

query: Would you mind telling me what phenotypic distance value was observed for Clc1ccc(C(Cn2ccnc2)OCc2ccsc2Cl)c(Cl)c1 (centres undefined) ?
result: 0.457

query: Given "COc1cc2c(cc1-c1c(C)noc1C)ncc1[nH]c(=O)n([C@H](C)c3ccccn3)c12" , state its recorded phenotypic distance.
result: 7.45

query: // lookup phenotypic distance for CC(C)NCC(O)COc1cccc2ccccc12 (centres undefined) [Propranolol hydrochloride]
result: 1.04

query: Find the recorded phenotypic distance belonging to "C[C@]12CC[C@H](O)C[C@H]1CC[C@@H]1[C@@H]2C[C@@H](O)[C@]2(C)[C@@H](C3=CC(=O)OC3)CC[C@]12O" and report it.
result: 1.14

query: Which phenotypic distance value is on record for "C[C@@]12C(=O)OC(=O)[C@]1(C)[C@H]1CC[C@@H]2O1" ?
result: 0.795

query: Item under review: "C=C(C)[C@H]1Cc2c(ccc3c2O[C@@H]2COc4cc(OC)c(OC)cc4[C@@H]2C3=O)O1" . Reported phenotypic distance?
result: 0.356

query: Need phenotypic distance of "Cc1ccc(C(=O)Nc2ccc(CN3CCN(C)CC3)c(C(F)(F)F)c2)cc1C#Cc1cnc2cccnn12" , thanks.
result: 4.1

query: Requested read-out: phenotypic distance. Entry: C[C@@H]1CN([C@H]2CC[C@](C#N)(c3ccc(F)cc3)CC2)CC[C@]1(C(=O)O)c1ccccc1 [Levocabastine hydrochloride]
result: 0.495

query: // returns reported phenotypic distance for input "COc1cc2c(c(OC)c1OC)-c1ccc(OC)c(=O)cc1[C@@H](NC(C)=O)CC2"
result: 4.49
